Where do the numbers come from? From patent US10189841B2.

- System under test: USP1 (construct USP1 (I-785, GG670, 671AA)/UAF1 (I-677)-Flag) (Homo sapiens (Human), UniProt O94782, G670A/G671A)
- Sequence (O94782 whole entry G670A/G671A): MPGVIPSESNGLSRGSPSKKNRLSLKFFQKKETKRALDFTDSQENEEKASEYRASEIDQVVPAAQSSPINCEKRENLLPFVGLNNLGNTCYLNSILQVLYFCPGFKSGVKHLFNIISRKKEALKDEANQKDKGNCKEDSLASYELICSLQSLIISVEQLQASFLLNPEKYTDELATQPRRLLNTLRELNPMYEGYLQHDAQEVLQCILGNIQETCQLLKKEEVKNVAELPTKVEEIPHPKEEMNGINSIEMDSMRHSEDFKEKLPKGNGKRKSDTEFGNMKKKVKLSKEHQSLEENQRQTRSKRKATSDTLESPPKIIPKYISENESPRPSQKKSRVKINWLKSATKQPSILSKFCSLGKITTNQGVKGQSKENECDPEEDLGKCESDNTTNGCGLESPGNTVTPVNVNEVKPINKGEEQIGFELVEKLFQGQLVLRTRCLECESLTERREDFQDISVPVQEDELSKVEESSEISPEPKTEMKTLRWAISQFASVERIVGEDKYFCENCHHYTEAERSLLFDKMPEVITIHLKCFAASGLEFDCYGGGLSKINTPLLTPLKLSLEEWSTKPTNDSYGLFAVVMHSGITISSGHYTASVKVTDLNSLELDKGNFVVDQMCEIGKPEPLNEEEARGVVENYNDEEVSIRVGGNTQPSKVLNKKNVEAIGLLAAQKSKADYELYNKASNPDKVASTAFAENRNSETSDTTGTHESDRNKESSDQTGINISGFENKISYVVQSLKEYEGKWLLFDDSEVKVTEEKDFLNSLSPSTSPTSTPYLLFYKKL
- Sequence (Q8TAF3 whole entry partner): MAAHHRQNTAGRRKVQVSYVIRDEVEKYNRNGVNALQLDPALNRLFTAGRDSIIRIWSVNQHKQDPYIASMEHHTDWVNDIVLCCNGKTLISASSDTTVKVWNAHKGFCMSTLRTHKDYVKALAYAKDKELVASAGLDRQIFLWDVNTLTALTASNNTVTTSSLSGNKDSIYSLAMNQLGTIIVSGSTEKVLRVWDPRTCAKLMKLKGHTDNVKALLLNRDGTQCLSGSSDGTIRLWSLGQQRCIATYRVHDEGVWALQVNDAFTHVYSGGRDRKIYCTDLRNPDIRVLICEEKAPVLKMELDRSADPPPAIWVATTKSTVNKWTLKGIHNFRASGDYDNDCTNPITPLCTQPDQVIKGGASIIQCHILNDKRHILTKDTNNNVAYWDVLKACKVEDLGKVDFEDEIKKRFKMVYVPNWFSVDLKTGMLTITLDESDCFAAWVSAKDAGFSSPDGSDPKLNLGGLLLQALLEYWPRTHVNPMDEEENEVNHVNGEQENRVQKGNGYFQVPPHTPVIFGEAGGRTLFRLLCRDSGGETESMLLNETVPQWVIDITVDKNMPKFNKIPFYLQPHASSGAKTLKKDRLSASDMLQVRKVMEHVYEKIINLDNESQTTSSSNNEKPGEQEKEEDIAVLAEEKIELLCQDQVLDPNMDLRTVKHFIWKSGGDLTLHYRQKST
- Experiment description: Ubiquitin-Rhodamine 110 assay for USP1 activity
- Run conditions: USP1/UAF1 25 pM, Ub-Rh110 25 nM, 30 min preincubation
For each of the molecules below, state its IC50.

Examples with answers:
{"Molecule": "CC(C)Oc1ncccc1-c1ncc2[nH]c(=O)n(Cc3ccc(-c4nc(C(F)(F)F)cn4C)cc3)c2n1 [Compound I-416]", "IC50": "< 50 nM"}
{"Molecule": "Cc1cn(C)c(-c2ccc(Cn3c(=O)[nH]c4cnc(-c5ccccc5C(C)C)nc43)cn2)n1 [Compound I-203]", "IC50": "< 50 nM"}
{"Molecule": "CC(=O)N1CCC(c2ccn(-c3ccc(Cn4c(=O)[nH]c5cnc(-c6cccnc6C(C)C)nc54)cc3)n2)CC1 [Compound I-465]", "IC50": "200 to 2000 nM"}
{"Molecule": "CC(C)c1ccccc1-c1ncc2[nH]c(=O)n(Cc3ccc(-c4cn[nH]c4)cc3)c2n1 [Compound I-539]", "IC50": "200 to 2000 nM"}

For each of the molecules below, note its IC50.
1. CC(C)c1ccccc1-c1ncc2[nH]c(=O)n(Cc3ccc(-c4nc(C(F)(F)F)cn4C4CN(C)C4)cc3)c2n1 [Compound I-447]
2. CC(C)c1ccccc1-c1ncc2[nH]c(=O)n(Cc3ccc(CN4CCOCC4)cc3)c2n1 [Compound I-153]

Ans:
1: < 50 nM; 2: > 2000 nM

I have 6 molecules here; please give me IC50 for each one.
1. Cn1cc(C(F)(F)F)nc1-c1ccc(Cn2c(=O)[nH]c3cnc(-c4cccnc4N[C@H]4CCOC4)nc32)cc1 [Compound I-322]
2. Cn1cc(C(F)(F)F)nc1-c1ccc(Cn2c(=O)[nH]c3cnc(-c4cccc5cnn(C)c45)nc32)cc1 [Compound I-44]
3. CC(C)c1ccccc1-c1ncc2[nH]c(=O)n(Cc3ccc(C(=O)NC4CCCC4)cc3)c2n1 [Compound I-358]
4. CC(C)c1ncccc1-c1ncc2[nH]c(=O)n([C@H](C)c3ccc(-c4nc(C(F)(F)F)cn4C)cc3)c2n1 [Compound I-79]
5. CN1CCc2cccc(-c3ncc4[nH]c(=O)n(Cc5ccc(-c6nc(C(F)(F)F)cn6C)cc5)c4n3)c21 [Compound I-34]
6. Cn1cc(C(F)(F)F)nc1-c1ccc(Cn2c(=O)n(C)c3cnc(-c4cccnc4N4CC(F)C4)nc32)cc1 [Compound I-134]

Ans:
["50 to 200 nM", "< 50 nM", "50 to 200 nM", "< 50 nM", "< 50 nM", "50 to 200 nM"]

Can you give me IC50 for all of these, one by one?
1. CC(C)c1ccccc1-c1ncc2c(n1)n(Cc1cccc(OCCN(C)C)c1)c(=O)n2C [Compound I-244]
2. CC(C)c1ncccc1-c1ncc2c(n1)n(Cc1ccc(-n3nc(C(F)(F)F)cc3N3CCOCC3)cc1)c(=O)n2C [Compound I-117]

Ans:
["> 2000 nM", "< 50 nM"]

----------
- System under test: USP1 (construct USP1 (I-785, GG670, 671AA)/UAF1 (I-677)-Flag) (Homo sapiens (Human), UniProt O94782, G670A/G671A)
- Experiment description: Ubiquitin-Rhodamine 110 assay for USP1 activity
- Run conditions: USP1/UAF1 25 pM, Ub-Rh110 25 nM, 30 min preincubation
pIC50: −log10 of the molar value.
Metric name: pIC50

{"Compound": "Cc1cc(C)n(-c2cnc(Cn3c(=O)[nH]c4cnc(-c5ccccc5C(C)C)nc43)nc2)n1", "pIC50": "5.70 to 6.70"}
{"Compound": "Cn1cc(C(F)(F)F)nc1-c1ccc(Cn2c(=O)[nH]c3cnc(-c4cccnc4C(F)F)nc32)cc1", "pIC50": "6.70 to 7.30"}
{"Compound": "Cc1nnc(-c2ccc(Cn3c(=O)[nH]c4cnc(-c5ccccc5C(C)C)nc43)cc2)o1", "pIC50": "> 7.30"}
{"Compound": "CC(C)c1ccccc1-c1ncc2[nH]c(=O)n(Cc3ccc(-n4ccc(C5CCCN(C)C5)n4)cc3)c2n1 (stereo not drawn)", "pIC50": "> 7.30"}
{"Compound": "Cn1cc(C(F)(F)F)nc1-c1ccc(Cn2c(=O)[nH]c3cnc(-c4cccnc4N4CCC(C(F)(F)F)CC4)nc32)cc1", "pIC50": "> 7.30"}
{"Compound": "COc1ccnn1-c1ccc(Cn2c(=O)[nH]c3cnc(-c4ccccc4C(C)C)nc32)cc1", "pIC50": "> 7.30"}

The following compounds each have a reported value; give each one's pIC50.
1. CC(C)c1ccccc1-c1ncc2c(n1)n(Cc1ccc(-n3cccn3)cc1)c(=O)n2CCN(C)C
2. CC(C)c1ccccc1-c1ncc2c(n1)n(Cc1ccc(OCc3ccccn3)cc1)c(=O)n2C
3. CC(C)c1ccccc1-c1ncc2c(n1)n(Cc1ccc(-c3cncn3C)cc1)c(=O)n2C
4. CC(C)c1ccccc1-c1ncc2[nH]c(=O)n(Cc3cccc(-n4cccn4)c3)c2n1
5. CC(C)c1ccccc1-c1ncc2[nH]c(=O)n(Cc3ccc(C(=O)N(C)C4CCOCC4)cc3)c2n1
6. CC(C)c1ccccc1-c1ncc2[nH]c(=O)n(Cc3ccc(-n4cc(CN(C)C)nn4)cc3)c2n1
7. CN(CC(F)(F)F)c1ncccc1-c1ncc2[nH]c(=O)n(Cc3ccc(-c4nc(C(F)(F)F)cn4C)cc3)c2n1

Ans:
5.70 to 6.70
> 7.30
6.70 to 7.30
6.70 to 7.30
6.70 to 7.30
< 5.70
> 7.30

Hi! Can you tell me pIC50 for each of these compounds?
1. CC(C)c1c(F)cccc1-c1ncc2[nH]c(=O)n(Cc3ccc(-n4cccn4)cc3)c2n1
2. Cc1cc(C(F)(F)F)nn1-c1ccc(Cn2c(=O)[nH]c3cnc(-c4ccccc4C(C)C)nc32)cc1

Ans:
["> 7.30", "> 7.30"]
